Each record here notes measured IC50.
test system: RAW264.7; experiment: Antiinflammatory activity against mouse RAW264.7 cells assessed as inhibition of LPS-induced NO production after 24 hrs by Griess method; assay type: functional, cell-based; conditions: RAW264.7, 24 h

- molecule: "COc1cc(C[C@H]2CO[C@H](c3ccc(O)c(OC)c3)[C@H]2CO)ccc1O [LARICIRESINOL]"
  IC50: "> 50 µM"
- molecule: "COc1ccc(-c2oc3cc(OC)c(OC)c(O)c3c(=O)c2OC)cc1O [CASTICIN]"
  IC50: "21.4 µM"
- molecule: "C[C@@H]1CC[C@H]2C(C)(C)CCC[C@]2(C)[C@@]12CC/C(=C\\C=O)O2"
  IC50: "41.8 µM"
- molecule: "CC(=O)O[C@H]1CC[C@@]2(C)[C@@H](CC[C@@H](C)[C@]23CCC(=O)O3)C1(C)C [VITEDOIN B]"
  IC50: "> 50 µM"
- molecule: "COc1cc([C@H]2Oc3c(OC)cc(CCCO)cc3[C@@H]2CO)ccc1O [DIHYDRODEHYDRODICONIFERY ALCOHOL]"
  IC50: "38.7 µM"
- molecule: "CC(=O)O[C@@H]1C[C@@H](C)[C@](O)(CCC2=CC(=O)OC2O)[C@@]2(C)CCCC(C)(C)[C@H]12 (some centres undefined) [VITEAGNUSIN I]"
  IC50: "11.3 µM"
- molecule: "CC(=O)O[C@@H]1C[C@@H](C)[C@](O)(CCC2=CC(=O)OC2)[C@@]2(C)CCCC(C)(C)[C@H]12 [VITEXILACTONE]"
  IC50: "42.5 µM"
- molecule: "C=CC(C)(O)CC[C@@]1(C)C2=C([C@H](OC(C)=O)[C@H](OC(C)=O)[C@H]1C)C(C)(C)CCC2 (some centres undefined) [VITETRIFOLIN D]"
  IC50: "24.5 µM"
- molecule: "CC(C)(O)c1ccc2c(c1)CC[C@H]1C(C)(C)[C@@H](O)CC[C@]21C"
  IC50: "> 50 µM"
